system: H3K27me3 mark in HeLa cells (EZH2); test: H3K27me3 Alpha Hela Assay (AlphaLISA); assay type: cell-based; conditions: HeLa cells, 72 hrs; read-out: EZH2 Cell H3K27me3 Alpha HeLa (EC50 K27me3)
Result type: EC50

- CSc1cc(C)[nH]c(=O)c1CNC(=O)c1c(C)n([C@H](C)C2CCC(N3CC(OC4CC4)C3)CC2)c2c(F)cccc12 (single isomer, unassigned) [113 (isomer 2)]: 10 to 100 nM
- CSc1cc(C)[nH]c(=O)c1CNC(=O)c1c(C)n([C@H](C)C2CCC(N3CC(OC4CC4)C3)CC2)c2ncncc12 (single isomer, unassigned) [102 (isomer 2)]: 10 to 100 nM
- CSc1cc(C)[nH]c(=O)c1CNC(=O)c1c(C)n([C@H](C)C2OCC(N(C)C)CO2)c2ccccc12 (single isomer, unassigned) [7 (isomer 2)]: < 10 nM
- CCOC1CN(C2CCC([C@@H](C)n3c(C)c(C(=O)NCc4c(SC)cc(C)[nH]c4=O)c4cccnc43)CC2)C1 (single isomer, unassigned) [91 (isomer 2)]: 10 to 100 nM

Now for the molecule whose EC50 we want.
The molecule identified as CSc1cc(C)[nH]c(=O)c1CNC(=O)c1c(C)n([C@H](C)[C@H]2OC[C@H](N3CCC34COC4)CO2)c2ccccc12 (single isomer, unassigned; isomer 2) [150 (isomer 2)] registered its EC50 at < 10 nM

====

tested on: H3K27me3 mark in HeLa cells (EZH2); experiment: H3K27me3 Alpha Hela Assay (AlphaLISA); type: cell-based; conditions: HeLa cells, 72 hrs; read-out: EZH2 Cell H3K27me3 Alpha HeLa (EC50 K27me3)
Result type: EC50

* CSc1cc(C)[nH]c(=O)c1CNC(=O)c1c(C)n([C@H](C)C2CCC(NC3COC3)CC2)c2ccccc12 (single isomer, unassigned) [2 (isomer 2)] | 10 to 100 nM
* CSc1cc(C)[nH]c(=O)c1CNC(=O)c1c(C)n([C@H](C)C2CCC(N3CC(OC(F)F)C3)CC2)c2c(F)cccc12 (single isomer, unassigned) [121 (isomer 2)] | > 100 nM

Now examine the next entry.
Measured EC50 of CSc1cc(C)[nH]c(=O)c1CNC(=O)c1c(C)n([C@H](C)C2CCC(N3CC(OC(F)(F)F)C3)CC2)c2ncncc12 (single isomer, unassigned) [123 (isomer 2)] : < 10 nM

====

target: PRC2 containing wt EZH2 (Homo sapiens (Human)); assay: EZH2 biochemical assay (IC50), 3H-SAM incorporation into biotinylated H3 peptide; details: EZH2 (IC50), 30 pM PRC2 containing wt EZH2; 3-5 h pre-incubation
Sequence (Q15910 whole entry): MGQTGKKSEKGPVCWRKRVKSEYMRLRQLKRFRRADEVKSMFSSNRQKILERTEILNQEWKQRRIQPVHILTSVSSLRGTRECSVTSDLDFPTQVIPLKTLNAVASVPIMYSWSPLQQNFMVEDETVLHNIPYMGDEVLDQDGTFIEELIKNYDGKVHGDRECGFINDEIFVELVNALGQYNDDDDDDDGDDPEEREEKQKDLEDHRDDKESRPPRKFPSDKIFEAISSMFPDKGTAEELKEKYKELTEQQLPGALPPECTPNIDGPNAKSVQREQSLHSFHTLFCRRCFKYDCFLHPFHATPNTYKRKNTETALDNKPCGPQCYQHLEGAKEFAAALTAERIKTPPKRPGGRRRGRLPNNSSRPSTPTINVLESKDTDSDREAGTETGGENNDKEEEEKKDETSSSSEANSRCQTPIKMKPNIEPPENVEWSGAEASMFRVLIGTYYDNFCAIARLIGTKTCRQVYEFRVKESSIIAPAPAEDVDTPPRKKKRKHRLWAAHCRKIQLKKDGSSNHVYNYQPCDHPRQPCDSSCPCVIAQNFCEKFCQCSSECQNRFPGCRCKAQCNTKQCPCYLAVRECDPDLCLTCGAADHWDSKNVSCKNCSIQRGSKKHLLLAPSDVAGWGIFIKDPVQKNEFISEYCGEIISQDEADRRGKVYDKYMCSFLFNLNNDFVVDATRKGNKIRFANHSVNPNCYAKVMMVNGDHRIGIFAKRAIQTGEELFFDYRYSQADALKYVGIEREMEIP
Sequence (O75530 whole entry partner): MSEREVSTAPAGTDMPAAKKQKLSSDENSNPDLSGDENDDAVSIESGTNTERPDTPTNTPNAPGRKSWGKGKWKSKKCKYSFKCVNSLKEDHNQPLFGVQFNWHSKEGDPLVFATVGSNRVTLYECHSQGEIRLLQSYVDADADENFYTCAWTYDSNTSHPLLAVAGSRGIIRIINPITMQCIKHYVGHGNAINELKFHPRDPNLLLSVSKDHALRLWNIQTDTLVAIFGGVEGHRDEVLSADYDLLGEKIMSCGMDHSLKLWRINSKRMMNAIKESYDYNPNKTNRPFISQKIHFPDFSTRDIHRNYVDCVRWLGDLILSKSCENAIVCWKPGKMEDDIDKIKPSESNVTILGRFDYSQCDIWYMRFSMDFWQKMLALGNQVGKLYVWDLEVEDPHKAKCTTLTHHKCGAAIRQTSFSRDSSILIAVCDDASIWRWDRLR
Sequence (Q15022 whole entry partner): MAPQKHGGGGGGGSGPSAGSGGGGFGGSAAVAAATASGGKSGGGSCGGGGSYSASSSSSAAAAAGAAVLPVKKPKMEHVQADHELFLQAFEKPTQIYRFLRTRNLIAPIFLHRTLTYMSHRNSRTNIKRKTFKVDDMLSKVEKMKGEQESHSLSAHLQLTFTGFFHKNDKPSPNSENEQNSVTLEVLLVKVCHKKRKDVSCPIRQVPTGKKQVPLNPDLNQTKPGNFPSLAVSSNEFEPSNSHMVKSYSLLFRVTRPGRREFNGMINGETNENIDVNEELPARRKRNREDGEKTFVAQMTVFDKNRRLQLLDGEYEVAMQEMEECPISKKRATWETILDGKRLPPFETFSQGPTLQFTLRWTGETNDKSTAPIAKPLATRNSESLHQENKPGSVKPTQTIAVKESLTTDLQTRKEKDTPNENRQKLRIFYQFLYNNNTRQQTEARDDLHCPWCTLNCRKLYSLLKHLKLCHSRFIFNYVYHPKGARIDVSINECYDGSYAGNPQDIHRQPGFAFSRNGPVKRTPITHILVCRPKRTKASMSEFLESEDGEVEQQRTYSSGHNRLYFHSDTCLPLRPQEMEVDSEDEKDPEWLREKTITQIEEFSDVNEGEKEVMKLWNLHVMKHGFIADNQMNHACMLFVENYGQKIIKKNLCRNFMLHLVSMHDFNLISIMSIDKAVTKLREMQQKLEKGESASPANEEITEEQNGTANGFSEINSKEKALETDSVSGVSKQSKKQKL
Sequence (Q09028 whole entry partner): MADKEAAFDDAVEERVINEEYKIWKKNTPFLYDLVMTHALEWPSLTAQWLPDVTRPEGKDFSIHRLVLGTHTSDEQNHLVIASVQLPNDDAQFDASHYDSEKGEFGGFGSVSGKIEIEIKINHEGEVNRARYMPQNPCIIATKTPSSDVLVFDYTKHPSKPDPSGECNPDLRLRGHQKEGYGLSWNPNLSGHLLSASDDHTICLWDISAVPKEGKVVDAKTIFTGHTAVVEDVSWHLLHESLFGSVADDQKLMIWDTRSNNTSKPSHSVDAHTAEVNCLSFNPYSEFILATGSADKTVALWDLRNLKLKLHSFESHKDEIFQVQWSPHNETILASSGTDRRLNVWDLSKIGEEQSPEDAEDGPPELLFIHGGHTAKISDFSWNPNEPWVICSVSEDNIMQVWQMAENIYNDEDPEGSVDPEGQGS
Sequence (Q6ZN18 whole entry partner): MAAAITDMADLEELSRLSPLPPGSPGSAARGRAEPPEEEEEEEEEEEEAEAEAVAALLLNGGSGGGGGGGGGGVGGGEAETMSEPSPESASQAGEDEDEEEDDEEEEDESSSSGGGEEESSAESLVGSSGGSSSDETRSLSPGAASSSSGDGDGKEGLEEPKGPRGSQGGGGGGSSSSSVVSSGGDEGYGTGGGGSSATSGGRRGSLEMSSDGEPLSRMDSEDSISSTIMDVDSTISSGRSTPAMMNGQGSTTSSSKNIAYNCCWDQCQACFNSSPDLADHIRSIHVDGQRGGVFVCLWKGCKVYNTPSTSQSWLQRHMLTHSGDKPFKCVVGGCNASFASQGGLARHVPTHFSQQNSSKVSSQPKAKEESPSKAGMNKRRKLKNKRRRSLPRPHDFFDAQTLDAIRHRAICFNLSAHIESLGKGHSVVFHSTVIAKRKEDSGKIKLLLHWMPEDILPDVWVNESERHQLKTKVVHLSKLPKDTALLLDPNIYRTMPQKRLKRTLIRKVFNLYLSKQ
Result type: IC50

• CCOC[C@@H](C)n1c(C)c(C(=O)NCc2c(SC)cc(C)[nH]c2=O)c2ccccc21 = 0.5 to 5 nM
• CSc1cc(C)[nH]c(=O)c1CNC(=O)c1c(C)n([C@H](C)C2CCOCC2)c2ccccc12 = < 0.5 nM
• CSc1cc(C)[nH]c(=O)c1CNC(=O)c1c(C)n([C@H](C)C2CCC(O)CC2)c2ccccc12 (single isomer, unassigned) [19 (isomer 1)] = < 0.5 nM
• CSc1cc(C)[nH]c(=O)c1CNC(=O)c1c(C)n([C@H](C)C2CCN(C3CC3)CC2)c2ncc(F)cc12 = < 0.5 nM
• CSc1cc(C)[nH]c(=O)c1CNC(=O)c1c(C)n([C@H](C)C2CCN(CC(F)(F)F)CC2)c2cc(F)ccc12 = < 0.5 nM
• CSc1cc(C)[nH]c(=O)c1CNC(=O)c1c(C)n([C@H](C)C2CCN(C3CC3)CC2)c2ncc(Cl)cc12 = < 0.5 nM
• CSc1cc(C)[nH]c(=O)c1CNC(=O)c1c(C)n([C@H](C)[C@H]2CCN(C)[C@H](C(F)(F)F)C2)c2ccccc12 = < 0.5 nM
• CSc1cc(C)[nH]c(=O)c1CNC(=O)c1c(C)n([C@H](C)C2CCC(N3CC(F)C3)CC2)c2c(F)cccc12 (stereo partly shown) = < 0.5 nM

Working through the 5 compounds below one at a time, give IC50 for each.
1. CSc1cc(C)[nH]c(=O)c1CNC(=O)c1c(C)n([C@H](C)C2CCC(N3CC(F)(F)C3)CC2)c2ccccc12 (single isomer, unassigned) [23 (isomer 1)]
2. CSc1cc(C)[nH]c(=O)c1CNC(=O)c1c(C)n([C@H](C)C2CCC(N3CC(F)C3)CC2)c2ncncc12 (stereo partly shown)
3. COC1CN(C2CCC([C@@H](C)n3c(C)c(C(=O)NCc4c(SC)cc(C)[nH]c4=O)c4cccnc43)CC2)C1 (single isomer, unassigned) [76 (isomer 2)]
4. CSc1cc(C)[nH]c(=O)c1CNC(=O)c1c(C)n([C@H](C)C2CCN(CC(F)(F)F)CC2)c2ncccc12
5. COC1CCC([C@@H](C)n2c(C)c(C(=O)NCc3c(SC)cc(C)[nH]c3=O)c3cncnc32)CC1 (single isomer, unassigned) [41 (isomer 1)]

-- reply
["0.5 to 5 nM", "< 0.5 nM", "0.5 to 5 nM", "< 0.5 nM", "< 0.5 nM"]

Origin of values: patent US11459315B2
